Source: patent US20250163127A1

Assignment: determine reported MFI ratio to WT (ΔWT) for the given binders.
Biological target: CD28 (human) (UniProt P10747)
Experiment: flow cytometry, transfected cells
Write the numeric value and append its unit.

What does the record list as MFI ratio to WT (ΔWT) for ICOSL-Fc N52S/N57H/Q100E (Fc fusion) DTQEKEVRAMVGSDVELSCACPEGSRFDLNDVYVYWQTSESKTVVTYHIPQSSSLEHVDSRYRNRALMSPAGMLRGDFSLRLFNVTPQDEQKFHCLVLSESLGFQEVLSVEVTLHVAANFSVPVVSAPHSPSQDELTFTCTSINGYPRPNVYWINKTDNSLLDQALQNDTVFLNMRGLYDVVSVLRIARTPSVNIGCCIENVLLQQNLTVGSQTGNDIGERDKITENPVSTGEKNAAT ? 5.2 fold

What does the record list as MFI ratio to WT (ΔWT) for ICOSL-Fc N57Q/Q100P (Fc fusion) DTQEKEVRAMVGSDVELSCACPEGSRFDLNDVYVYWQTSESKTVVTYHIPQNSSLEQVDSRYRNRALMSPAGMLRGDFSLRLFNVTPQDEQKFHCLVLSPSLGFQEVLSVEVTLHVAANFSVPVVSAPHSPSQDELTFTCTSINGYPRPNVYWINKTDNSLLDQALQNDTVFLNMRGLYDVVSVLRIARTPSVNIGCCIENVLLQQNLTVGSQTGNDIGERDKITENPVSTGEKNAAT ? 0.7 fold

What does the record list as MFI ratio to WT (ΔWT) for ICOSL-Fc N52Q/N57F (Fc fusion) DTQEKEVRAMVGSDVELSCACPEGSRFDLNDVYVYWQTSESKTVVTYHIPQQSSLEFVDSRYRNRALMSPAGMLRGDFSLRLFNVTPQDEQKFHCLVLSQSLGFQEVLSVEVTLHVAANFSVPVVSAPHSPSQDELTFTCTSINGYPRPNVYWINKTDNSLLDQALQNDTVFLNMRGLYDVVSVLRIARTPSVNIGCCIENVLLQQNLTVGSQTGNDIGERDKITENPVSTGEKNAAT ? 5.9 fold
